The entries below come with measured Stability values attached.
# Species: Mus musculus
# Experiment Summary: Stability in mouse liver microsomes assessed as degradation rate per mg of protein
# Type: ADME
# Assay Context: mouse

Query: What Stability value was documented for this molecule, COc1cc(C)c(Sc2cnc(NC(=O)C3CC3)s2)cc1C(=O)N1CCN(C(C)=O)CC1 ?
Result: > 0.3 nmol/min/mg

Query: Same thing, different molecule: CN(CC(=O)O)C(=O)c1cc(Sc2cnc(Nc3cccc(Br)n3)s2)ccc1O
Result: < 0.1 nmol/min/mg

Query: Same thing, different molecule: O=C(O)C1CCN(C(=O)c2cc(Sc3cnc(Nc4cccc(Br)n4)s3)ccc2O)CC1
Result: < 0.1 nmol/min/mg

Query: Same thing, different molecule: COc1cc(C)c(Sc2cnc(NC(=O)C3CC3)s2)cc1C(=O)N1CCN(C(=O)CN(C)C)CC1
Result: 0.1 nmol/min/mg

Query: Same thing, different molecule: CCN1CCN(C(=O)c2cc(Sc3cnc(NC(=O)C4CC4)s3)c(C)cc2OC)CC1
Result: > 0.3 nmol/min/mg

====

# Experiment Summary: Cmax in mice at 20 mg/kg, po
# Assay type: ADME, organism-based
# Design: dose 20 mg/kg, route oral
# Assay Context: mouse, in vivo
Measured Quantity: Cmax (µM)
Report only the number, with the unit µM understood.

Query: What Cmax value was documented for this compound, COc1cc(C)c(Sc2cnc(NC(=O)c3ccc(CNC(C)C(C)(C)C)cc3)s2)cc1C(=O)N1CCN(C(C)=O)CC1 (stereo unspecified) ?
Result: 0.069

====

# Experiment Summary: Tmax in mice at 20 mg/kg, po
# Format: ADME, organism-based
# Parameters: dose 20 mg/kg, route oral
# Assay Context: mouse, in vivo
Measured Quantity: Tmax (h)
Report only the number, with the unit h understood.

Query: What Tmax value was documented for this molecule, COc1cc(C)c(Sc2cnc(NC(=O)c3ccc(CNC(C)C(C)(C)C)cc3)s2)cc1C(=O)N1CCN(C(C)=O)CC1 (stereo unspecified) ?
Result: 1

====

# Experiment Summary: Volume of distribution in mice at 10 mg/kg, iv
# Type: ADME, organism-based
# Parameters: dose 10 mg/kg, route intravenous
# Assay Context: mouse, in vivo, read-out: Vss
Measured Quantity: Vd (L/kg)
Report only the number, with the unit L/kg understood.

Query: What Vd value was documented for this compound, COc1cc(C)c(Sc2cnc(NC(=O)c3ccc(CNC(C)C(C)(C)C)cc3)s2)cc1C(=O)N1CCN(C(C)=O)CC1 (stereo unspecified) ?
Result: 7

====

# Assay Target: Protein kinase C (PKC)
Measured Quantity: pIC50
// returns pIC50 (minus log10 of molar concentration), number only

Query: What pIC50 value was documented for this compound, COc1cc(C)c(Sc2cnc(NC(=O)c3ccc(CNC(C)C(C)(C)C)cc3)s2)cc1C(=O)N1CCN(C(C)=O)CC1 (stereo unspecified) ?
Result: 4.62

====

# Experiment Summary: Mean residence time in mice at 10 mg/kg, iv
# Assay type: ADME, organism-based
# Design: dose 10 mg/kg, route intravenous
# Assay Context: mouse, in vivo
Measured Quantity: MRT (h)
Report only the number, with the unit h understood.

Query: What MRT value was documented for this compound, COc1cc(C)c(Sc2cnc(NC(=O)c3ccc(CNC(C)C(C)(C)C)cc3)s2)cc1C(=O)N1CCN(C(C)=O)CC1 (stereo unspecified) ?
Result: 1
